Assay: RP, Waters ACQUITY UPLC BEH C18, 100 × 1 mm, 1.7 µm, 50 °C, 0.3 mL/min, estimated dead time 0.17 min; A: water + 10 mM ammonium bicarbonate; B: 10% water + 90% methanol + 10 mM ammonium bicarbonate; gradient (min/%B) 0/0 15/100 21/100 22/0 30/0
Details: stereoisomer not certain
Tick t if LC retention time is 10 min or greater. Tick f if LC retention time is less than 10 min.

Query :: Is LC retention time at least 10 min? Consider Cc1cc(C)c2ccccc2n1
Result :: t

Query :: Quick check: does COc1cc(Cl)c(OC)cc1N have LC retention time greater than or equal to 10 min?
Result :: t

Query :: Quick check: does COc1cc2nc(N(C)CCCNC(=O)C3CCCO3)nc(N)c2cc1OC (centres undefined) have LC retention time greater than or equal to 10 min?
Result :: t

Query :: Check this compound for LC retention time at or above 10 min: O=C(Cc1ccccc1)NC(=NOCC1CC1)c1c(C(F)(F)F)ccc(F)c1F
Result :: t

Query :: Could you tell me if the measured LC retention time of CN(C)C(=S)SC(=S)N(C)C [Tetramethylthiuram monosulfide] reaches 10 min or more?
Result :: f

Query :: // inclusive: LC retention time at least 10 min? input: Cc1ccc(C(C)NC(=O)C(NC(=O)OC(C)C)C(C)C)cc1 (centres undefined)
Result :: t

Query :: Record CC(C)Nc1nc(NC(C)C)[nH]c(=O)n1 [Propazine-2-hydroxy] ; criterion: LC retention time no lower than 10 min. Met?
Result :: t

Query :: Evaluate O=C1C(O)Oc2ccccc2N1O (centres undefined) : LC retention time at minimum 10 min?
Result :: f
